Exercise: for every item that follows, state its recorded MIC.
- Test system: Escherichia coli
- procedureText: Antibacterial activity against ESBL-positive Escherichia coli Top10 harboring plasmid AT517
- Assay type: functional
Give the value in µg/mL but do not write µg/mL after it.

Exercise: Assign MIC to the following record: "C[C@H]1[C@H](NC(=O)/C(=N\OC(C)(C)C(=O)O)c2csc(N)n2)C(=O)N1S(=O)(=O)O"
Solution: 24

Exercise: Assign MIC to the following record: CO/N=C(\C(=O)N[C@@H]1C(=O)N2C(C(=O)[O-])=C(C[N+]3(C)CCCC3)CS[C@H]12)c1csc(N)n1 [CEFEPIME]
Solution: 2

Exercise: Assign MIC to the following record: "CO[C@@]1(NC(=O)Cc2cccs2)C(=O)N2C(C(=O)O)=C(COC(N)=O)CS[C@@H]21"
Solution: 6

Exercise: Assign MIC to the following record: "C[C@@H](O)[C@H]1C(=O)N2C(C(=O)O)=C(S[C@@H]3CN[C@H](C(=O)N(C)C)C3)[C@H](C)[C@H]12"
Solution: 0.047
